Tested on: Fibroblast
TEST: Multiplex assay against human fibroblast
Type: toxicity, cell-based
CONDITION CONTEXT: 24 h, 10 µM, compound concentration 10 uM, replicate 1
Exercise: for every item that follows, state its recorded Population Apoptotic (%).
Answers are plain numbers, in %.

Worked set:
- Cc1sc2c(c1C)C(c1ccc(Cl)cc1)=N[C@H](CC(=O)OC(C)(C)C)c1nnc(C)n1-2: 75
- Cc1cc(O)c(-c2ccc([C@@H](C)CN(C)C)cc2)c2c1[nH]c(=O)c1sccc12: 66
- Cc1cc(=O)n(C)c2cc(N3C(=O)CC[C@H](NS(=O)(=O)CC(C)C)[C@H]3c3ccc(Cl)cc3)ccc12: 43

Please look at the items below and tell me Population Apoptotic (%) for each one, in order.
1. CCCCCCNC(=O)Nc1ccc(S(=O)(=O)Nc2ccc(CCNC[C@H](O)COc3ccc(O)cc3)cc2)cc1
2. O=c1nc2[nH]c3ccccc3nc-2c(=O)[nH]1

72
47
